System: LXRβ (Homo sapiens)
Construct: Co-transfection expression plasmids, comprising full-length LXRα (pCMX-h LXRα[…] or LXRβ (pCMX-hLXRβ))
Sequence (P55055 whole entry): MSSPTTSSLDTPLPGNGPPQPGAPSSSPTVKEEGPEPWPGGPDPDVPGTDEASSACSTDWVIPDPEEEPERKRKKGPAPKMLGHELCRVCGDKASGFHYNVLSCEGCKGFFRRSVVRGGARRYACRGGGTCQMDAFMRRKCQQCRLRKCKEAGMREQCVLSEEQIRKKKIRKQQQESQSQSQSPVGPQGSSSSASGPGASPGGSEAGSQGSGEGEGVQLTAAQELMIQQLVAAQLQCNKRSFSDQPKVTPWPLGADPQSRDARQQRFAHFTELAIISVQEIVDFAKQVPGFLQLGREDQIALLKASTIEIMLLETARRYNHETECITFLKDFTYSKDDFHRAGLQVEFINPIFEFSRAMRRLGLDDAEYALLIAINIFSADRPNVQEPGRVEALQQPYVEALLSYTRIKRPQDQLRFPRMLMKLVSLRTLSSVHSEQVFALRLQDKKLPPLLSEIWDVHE
Sequence (P19793 whole entry partner): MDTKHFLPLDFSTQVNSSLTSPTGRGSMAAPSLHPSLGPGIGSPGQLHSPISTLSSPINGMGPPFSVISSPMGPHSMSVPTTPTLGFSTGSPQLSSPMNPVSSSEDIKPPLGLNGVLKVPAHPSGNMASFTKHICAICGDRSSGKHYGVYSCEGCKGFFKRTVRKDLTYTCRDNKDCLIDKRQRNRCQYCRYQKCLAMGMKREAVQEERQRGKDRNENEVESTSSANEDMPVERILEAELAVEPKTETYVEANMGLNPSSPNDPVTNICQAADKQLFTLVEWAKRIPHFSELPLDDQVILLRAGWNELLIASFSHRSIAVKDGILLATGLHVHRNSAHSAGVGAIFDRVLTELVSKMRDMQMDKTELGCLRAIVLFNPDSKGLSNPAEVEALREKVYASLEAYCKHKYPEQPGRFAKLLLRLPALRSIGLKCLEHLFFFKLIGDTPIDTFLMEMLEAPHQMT
Assay method text: Co-transfection assay (LXRE luciferase reporter), LXRβ
Measurement setup: CV-1 cells transfected with pCMX-hLXRβ and LXREx1-Tk-Luciferase; 20 hours incubation
Observable: pEC50
Scale for pEC50: -log10 of concentration given in mol/L; no unit attached.

Request: Return value of pEC50 for input CCC(F)(F)c1cn(-c2ccc(-c3cccc(S(C)(=O)=O)c3)cc2-n2nncc2-c2ccc(OC(F)(F)F)cc2)c(C)n1 , no commentary.
Response: 6.47

Request: Return value of pEC50 for input Cc1nc(C(F)F)cn1-c1ccc(-c2cccc(S(C)(=O)=O)c2)cc1-n1nncc1C(C)c1ccc(Cl)cc1 (stereo not drawn) , no commentary.
Response: 6.59

Request: Return value of pEC50 for input Cc1nc(-c2cc(-c3cccc(S(C)(=O)=O)c3)ccc2-n2cc(C(F)(F)F)nc2C)c(-c2cccc(OC(F)(F)F)c2)o1 , no commentary.
Response: 6.90

Request: Return value of pEC50 for input Cc1nc(C(F)(F)F)cn1-c1ccc(-c2cccc(S(C)(=O)=O)c2)cc1-n1nncc1Cc1ccc(OC(F)(F)F)cc1 , no commentary.
Response: 5.98

Request: Return value of pEC50 for input Cc1nc(-c2cc(-c3cccc(S(C)(=O)=O)c3)ccc2-n2cc(C(F)(F)F)nc2C)c(-c2ccc3c(c2)OCCO3)o1 , no commentary.
Response: 6.63

Request: Return value of pEC50 for input Cc1nc(-c2cc(-c3cc(F)c(CO)c(S(C)(=O)=O)c3)ccc2-n2cc(C(F)(F)F)nc2C)c(-c2ccc(OC(F)F)c(Cl)c2)o1 , no commentary.
Response: 7.55
